FYI, the data here is from the supplement of paper PMC12042874.

# assayProtocol: amyloid nucleation score (Sup35N fusion, yeast selection) (log enrichment); library NNK2; higher = more nucleation; inactive = no reads after selection;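 further: zero at mode of non-aggregating sequences after 7 days selection at 30°C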
endpointLabel: amyloid nucleation score
Answers are plain numbers.

VLRGSFKGFFYRWIKCGFEW    -1.24

For the 6 substances below, give their amyloid nucleation score values.
1. YPPWVSGVMIVMGHLRRCSA
2. GICKALARYYFSIYDWQVTE
3. FMSICR
4. MLVVLMFSLSDSI
5. VKFAGWTCSL
6. QDVGNKLKIWANITCARLWY

Response:
[1.93, 0.049, 1.47, 1.67, -0.314, -0.067]

For the 7 substances below, give their amyloid nucleation score values.
1. TVSRIMLGNGKYFKHVL
2. MTFNVFRNQALRPNCCKPNG
3. FLGWPGIRQCLLFVANNRGR
4. VLLEIY
5. TRMNSVYKVEIRRLVKMVSW
6. RKYTCSFRLFYRGVCFVT
7. LIQRVRGCWTSYVYGGVWSR

Response:
1. 2.3
2. 3.09
3. -0.448
4. -0.384
5. 0.242
6. -1.16
7. 1.66

For the 2 substances below, give their amyloid nucleation score values.
1. RIGCRRPRFDNEQQWARS
2. ARVALRLIYDMDRVLWPDSY

Response:
1. 5.62
2. 5

====

Would you kindly list amyloid nucleation score for each of these substances?
# assayProtocol: amyloid nucleation score (Sup35N fusion, yeast selection) (log enrichment); library NNK2; higher = more nucleation; inactive = no reads after selection
Numbers only.

Study these solved cases before continuing.
LWLVSRRNACFA    -0.408
LGDLFYYFTVRK    0.389
SNSYGGDTQRY    -0.517
VYGLVL    0.011

For the 7 substances below, give their amyloid nucleation score values.
1. DLRSWVFWNTSAYYIFSTDS
2. DRARRVVIIWVYLIDRVNVR
3. TWRFYTFLFEVFRRSEILKR
4. AWLWKMFNGTCNRWYINRPL
5. LMLGSWQDKMPSLLWLDLCV
6. DSSGVGTRLDCKLCFENLID
7. ITFKISNGVWYLPKRL

Response:
-1.32
0.004
-0.97
-0.81
0.86
-0.952
6.63

For the 3 substances below, give their amyloid nucleation score values.
1. CFLTTYNRNYNLMRVFSIFR
2. FVLRIDNC
3. VISGGFMF

Response:
1: 1.43; 2: 0.735; 3: 4.63

For the 3 substances below, give their amyloid nucleation score values.
1. CRGTQALSYSLS
2. RCSGVP
3. CNSSSGHDKIVIGSLFRVFA

Response:
1: -0.017; 2: 0.908; 3: -1.42

For the 3 substances below, give their amyloid nucleation score values.
1. CFFLYIRHFAMYCA
2. AWCFLYLLWLPGIQN
3. TMYIWRL

Response:
1.65
-0.226
6.58

For the 7 substances below, give their amyloid nucleation score values.
1. AASRWVVSHKYRWWMMRLMK
2. PCLMEGFTS
3. YPYDWSLLVLELVRQILSMG
4. GLISIAVSRRVYLFCLVAPV
5. VCQVFVNGVSSDRVAVLVVI
6. FSSSNSIFKFVLNVRCTGVK
7. QCVGRASCANSVALYLCSVA

Response:
0.302
-0.849
0.704
-0.541
5.25
5.04
0.06

For the 5 substances below, give their amyloid nucleation score values.
1. VSMNDVLYLMCS
2. MASTIWIMLVYDLNARKMHI
3. YNILVK
4. LWGVYD
5. RYAYLFGPGRCWMFLSVFPY

Response:
1: -0.556; 2: 4.87; 3: -0.622; 4: -0.212; 5: 4.2

For the 5 substances below, give their amyloid nucleation score values.
1. LYSESIVLFAYGFNGDGGLY
2. CRITNSNSL
3. CTFFTSTPT
4. LFDVMIQTRCLYHWNSPHNL
5. NASTRSGNYQFARHGLGYRR

Response:
1. -0.67
2. -0.448
3. 0.343
4. 5.14
5. 1.44

For the 7 substances below, give their amyloid nucleation score values.
1. EWCQFIR
2. RLYKRLR
3. DLSCGGRLKMNHYKA
4. ALFIEISPLTINLFTNAKSL
5. QVLVWQHMGRSTVLMLY
6. KVISSVSEPLSKKEDYE
7. WGFIAVDGRPIVASLRYSMR

Response:
-0.199
-1.19
-0.686
-1.06
-0.58
-0.706
3.51

====

# assayProtocol: amyloid nucleation score (Sup35N fusion, yeast selection) (log enrichment); library NNK3; higher = more nucleation; inactive = no reads after selection
endpointLabel: amyloid nucleation score

Study these solved cases before continuing.
RVVAFHIANDLLLSLKKS    1.39
LARRRSTCDICWLSYKATDL    inactive
SVRVYGDCLCECWSCYTPRT    0.502
SYNTYSVYGWGKGPRNYDWQ    inactive
YSVDGICTRAVLGPVDWVNG    inactive

For the 7 substances below, give their amyloid nucleation score values.
1. YLMIIDRPKSHNLPYLGMLH
2. MPNLAFSG
3. IIKDLPVCVDERASYAEVMS
4. YKSLIVNANYCDLGFLRGWC
5. FMVSMIIESSAGTFFMLSLV
6. LVKLKL
7. FLRLSMKLHNLWYLLGSLWS

Response:
1: inactive; 2: 0.006; 3: inactive; 4: 2.6; 5: inactive; 6: inactive; 7: inactive

For the 5 substances below, give their amyloid nucleation score values.
1. MSEVPGMNDTWRVCIMDQGK
2. HGKVGKRFRLGQKAYVSGLW
3. PKGEGIMISLFLDCTRLVNG
4. SAYTNANGLNVSLFLMHHAC
5. SYRPDSCRLNTMNDFSSCCS

Response:
["inactive", "inactive", 2.11, "inactive", "inactive"]

====

Would you kindly list amyloid nucleation score for each of these sequences?
# assayProtocol: amyloid nucleation score (Sup35N fusion, yeast selection) (log enrichment); library NNK1; higher = more nucleation; inactive = no reads after selection
One number for each entry.

Study these solved cases before continuing.
YLRVNAHMLDYSF    -0.513
VTTRLPIYRVKF    0.228
LVCFHQRVKIVRYCRTGTLT    -0.095
YTFGDAGHPESAMVTCRAYS    -0.007
SIANNKRTKTVGLMLSCRSS    3.79

For the 2 sequences below, give their amyloid nucleation score values.
1. CVLSNRNFNYVAYTYKLQYP
2. LMNVVLISHKSFVYSR

Response:
[1.19, -1.16]

Sure, the documented amyloid nucleation score for `TVSIPKPILFCEFYFRYADM` is -1.67

====

# assayProtocol: amyloid nucleation score (Sup35N fusion, yeast selection) (log enrichment); library NNK2; higher = more nucleation; inactive = no reads after selection
Classification field: rule met = amyloid nucleation score at or over 0.5; rule not met = amyloid nucleation score under 0.5.

Worked examples follow.
DITLFYSDTSCRFSVPCSVD    rule met
YSGKNIAGLNFSIRCCSSIE    rule met
ITTAYGGTIEMIRELNVASV    rule not met
YTNSQYSPLPQQSNLKVSNI    rule not met

Next:
Prompt: Quick check: does `WSRSNLCTFSFLGNIISPDR` have amyloid nucleation score greater than or equal to 0.5?
Response: rule met

====

# assayProtocol: amyloid nucleation score (Sup35N fusion, yeast selection) (log enrichment); library NNK3; higher = more nucleation; inactive = no reads after selection
endpointLabel: amyloid nucleation score

YIRELARPTLSRIKRLAPIS    inactive
LSFSRDRLLHSSWGTKLMIM    inactive
SSFNFTSIVLHIANLLHFFL    inactive
ARATALAVFCIGTDYGSIES    -0.319
RKMFWDGF    inactive

For the 8 sequences below, give their amyloid nucleation score values.
1. AATYTTYHLESSNVYSFNFW
2. GPQYWCVTRNNYYGSFYEVS
3. GGYQAQTWL
4. RYVSSLLSNLRGQKNCVSVL
5. KFADQALTHSQYATFLTGLY
6. GYFFGTTKKCETFTCMRWQV
7. FISHRARWISDESYIICHFV
8. LCWPGTVDWFQGWRKAG

Response:
1. 2.96
2. 0.407
3. inactive
4. inactive
5. inactive
6. inactive
7. -0.067
8. inactive

For the 4 sequences below, give their amyloid nucleation score values.
1. TFSDRSFRQWVWQELSFCGS
2. HYPIRERNAFLLNNDVDLLA
3. NMNSISYSQPIFRSRTRRRM
4. LCETYYHHTARGLHLASLVS

Response:
1. inactive
2. inactive
3. inactive
4. inactive

====

Would you kindly list amyloid nucleation score for each of these substances?
# assayProtocol: amyloid nucleation score (Sup35N fusion, yeast selection) (log enrichment); library NNK1; higher = more nucleation; inactive = no reads after selection

Study these solved cases before continuing.
STLLMTSDSSALMLLYTSIL    -0.336
AHSAYL    0.43
SSYSYSDLRTRYIRITSQLD    0.203

For the 6 substances below, give their amyloid nucleation score values.
1. MERYCN
2. YQDFAGDARFGEIRWYYPKS
3. SRSSCQVMVSRDAADVLHRI
4. RDSINLLDFGIVITGAKKWS
5. WMRKVIPTNGTVDIETSS
6. AVGRPPIRYRNTHSISTDSE

Response:
1: -0.148; 2: 0.125; 3: 0.423; 4: 0.218; 5: 0.438; 6: 0.565
